# credit: the supplement of paper PMC8671470

Exercise: for every item that follows, state its recorded cell viability.
Tested on: HEL
Assay: cell viability (% survival relative to DMSO control, bortezomib = 0%); higher = less cytotoxic
Conditions: 10000 nM; 72 h
Give bare numbers, in %.

Please review the following examples before continuing.
O=C(Cc1cccc(OC(F)(F)F)c1)Nc1ccc(CCCCc2nnc(NC(=O)Cc3ccccn3)s2)nn1 [CB-839] | 64.8
N[C@@H](CCC(=O)N[C@@H](CS)C(=O)NCC(=O)O)C(=O)O [Glutathione] | 111
CC(C)(CS(=O)(=O)[O-])NC(=O)CC[N+](C)(C)CCO | 104
Cl.OC[C@H]1NC[C@H](O)[C@@H](O)[C@H]1O [Migalastat] | 101
OCCN(CCO)c1nc(N2CCCCC2)c2nc(N(CCO)CCO)nc(N3CCCCC3)c2n1 [Dipyridamole] | 77.7
NS(=O)(=O)c1ccc(NC(=O)Cc2ccccc2)cc1 [4-(2-Phenylacetamido)Benzenesulfonamide] | 106
CCC(CC#N)OC(=O)N[C@@H](C)c1cccc(NC(=O)Nc2ccc(-c3cnco3)c(OC)c2)c1 (stereo in doubt) [AVN-944] | 2.7

Item: C[C@H]1O[C@H](O[C@H]2[C@H](O)[C@@H](O)[C@@H](O[C@H]3[C@H](O)[C@@H](O)C(O)O[C@@H]3CO)O[C@@H]2CO)[C@H](O)[C@@H](O)[C@@H]1N[C@H]1C=C(CO)[C@@H](O)[C@H](O)[C@H]1O (mixture of isomers) [Acarbose] | cell viability: 98.8
